Tested on: NCI-H226 lung
method-notes: NCI-60 one-dose screen, 48 h (100 = growth as untreated, 0 = no growth, -100 = all killed)
test-settings: 10 µM unless noted
Method: Growth inhibition of the NCI-H226 human Non-Small Cell Lung tumor cell line is measured as a screen for anti-cancer activity. Cells are grown in 96 well plates and exposed to the test compound for 48 hours. Compounds are tested at a single concentration, which is 10^-5 M for most compounds. The reported endpoint is percent growth (GI% or GIPRCNT), where numbers from 0 - 100% represent growth inhibition, and numbers from -100% - 0 represent cell death. […]
This is part of a sample that, as a whole, favours compounds with a hit. Of some 83,000 tested, about 20% had one in any assay.
Response key: 1 means growth >= 90%; 0 means growth < 90%.

Some entries whose results are on file:
INSERT INTO measurements (compound, category_label) VALUES
  ('COc1ccc2c(c1)C(C)Cc1c(ncnc1-n1cnc3cc(C)ccc31)N2C (stereo not given)', 0),
  ('O=C1/C(=C/c2c[nH]c(=O)[nH]c2=O)SC(=S)N1Cc1ccccc1', 1),
  ('O=S(=O)(Nc1cc(Sc2nc3ccccc3s2)c(O)c2ccccc12)c1ccc2ccccc2c1', 1);

Moving on to the next compound.
Record Clc1ccc2nn3c4ccccc4c(OCCN4CCOCC4)nc3c2c1 ; criterion: growth no lower than 90%. Met?
1

----------
Tested on: EKVX NSCLC
method-notes: NCI-60 one-dose screen, 48 h
test-settings: 10 µM unless noted
Compounds without any hit were thinned out: in the full panel of roughly 83,000, 20% have a hit. The source made the active and inactive calls. How the source made its calls: active means growth percent below 10; inactive means the rest.
Hi! Could you answer with just one of these? true (1) for active, false (0) for inactive

What is the recorded call for this molecule in the test? Ic1ccc(Nc2nc3nonc3nc2Nc2ccc(I)cc2)cc1
true (1)

What is the recorded call for this molecule in the test? O=C(Nc1ccc(Nc2ccncc2)cc1)c1ccc(Nc2ccnc3ccc([N+](=O)[O-])cc23)cc1
false (0)

What is the recorded call for this molecule in the test? CN(C)c1ccc(/C=C2\C=C(c3nc4ccccc4s3)OC2=O)cc1
false (0)

----------
System: MCF7 breast
method-notes: NCI-60 one-dose screen, 48 h
test-settings: 10 µM unless noted
The panel holds about 83,000 compounds, 20% with a hit somewhere; the sample as a whole holds those more often. Calls of active or inactive are those of the source. How the source made its calls: active means growth percent below 10; inactive means the rest.
Hi! Could you answer with just one of these? 1 (active), 0 (inactive)

INSERT INTO results (structure_smiles_string, category_label) VALUES
  ('Nc1cc(-c2ccc(Cl)cc2)nn1-c1nnc(/C=C/c2ccco2)c(=O)[nH]1', 0),
  ('COc1ccc(C=Nc2c(C(=O)Nc3cccc(Cl)c3C)sc3nc(C)c(C(=O)/C=C/c4ccc(OC)cc4)cc23)cc1', 0),
  ('Cc1cn(C)cn1', 0);

Moving on to the next compound.
What is the recorded call for this compound in the test? CCCc1cc(=O)oc2c(C(=O)CC(C)C)c(O)c(CC=C(C)C)c(O)c12
1

----------
Tested on: NCI-H460 lung
method-notes: NCI-60 one-dose screen, 48 h
test-settings: 10 µM unless noted
Compounds without any hit were thinned out: in the full panel of roughly 83,000, 20% have a hit. Calls of active or inactive are those of the source. The calls were made as follows: active = growth percent below 10; inactive = the rest.
Hi! Could you answer with just one of these? Yes = active, No = inactive

INSERT INTO assay_data (molecule, category_label) VALUES
  ('O=c1cc(CNc2cc(F)cc(F)c2)c2ccc(I)cc2[nH]1', 'No');

What is the recorded call for this molecule in the test? CSc1nc2ccc(C)cc2cc1/C=C1/C=C(c2ccccc2)NC1=O
No

What is the recorded call for this molecule in the test? CSc1nc(-c2ccco2)c(C#N)c(=O)n1C
No

What is the recorded call for this molecule in the test? Cc1c(C(C)(C)O)cn2ncnc(Oc3ccc(NC(=O)Nc4ccc(Cl)c(C(F)(F)F)c4)c(F)c3)c12
No

What is the recorded call for this molecule in the test? N#Cc1c(-c2ccccc2)cc(-c2ccccc2)n(CCCCC(=O)NO)c1=O
No

What is the recorded call for this molecule in the test? COC12C=C/C(=C(/C(=O)OCCSc3ccnn3C)C(=O)CCCCCCCCC3(OC)C=C/C(=C(/C(=O)OCCSc4ccnn4C)C(=O)CCCCCCCC1)O3)O2
Yes

What is the recorded call for this molecule in the test? Cc1cccc(NC(=O)N/C(N)=N/c2nc3ccccc3s2)c1
No

What is the recorded call for this molecule in the test? Cc1cc(O)cc(-c2nn(C)cc2-c2cc(N3CCOCC3)nc(-c3cccnc3)n2)c1
No

What is the recorded call for this molecule in the test? O=C(Nc1nc(Cl)nc(Nc2ccc(N3CCOCC3=O)cc2)n1)c1ccc(Cl)s1
No

What is the recorded call for this molecule in the test? CCOC(=O)C#Cc1c(C(=O)OCC)nnn1[C@@H]1O[C@H](COC)[C@@H](OC)[C@H]1OC
No

What is the recorded call for this molecule in the test? CNC(=O)c1cc(Oc2ccc3c(c2)sc2nc(-c4cc(C(F)(F)F)cc(C(F)(F)F)c4)cn23)ccn1
No

What is the recorded call for this molecule in the test? COC(=O)/C=C1/SC(=NCc2ccccc2)N(CCc2c[nH]c3ccccc23)C1=O
No

What is the recorded call for this molecule in the test? C=C(C)[C@@H]1CC[C@]2(C(=O)Nc3ccccn3)CC[C@]3(C)[C@H](CC[C@@H]4[C@@]5(C)CCCNC(C)(C)[C@@H]5CC[C@]43C)[C@@H]12
Yes

What is the recorded call for this molecule in the test? O=C1/C(=C/c2ccccn2)SC(=S)N1N1CCOCC1
No
